Target: AcrB (Escherichia coli, UniProt P31224, I27A)
Sequence (P31224 whole entry I27A): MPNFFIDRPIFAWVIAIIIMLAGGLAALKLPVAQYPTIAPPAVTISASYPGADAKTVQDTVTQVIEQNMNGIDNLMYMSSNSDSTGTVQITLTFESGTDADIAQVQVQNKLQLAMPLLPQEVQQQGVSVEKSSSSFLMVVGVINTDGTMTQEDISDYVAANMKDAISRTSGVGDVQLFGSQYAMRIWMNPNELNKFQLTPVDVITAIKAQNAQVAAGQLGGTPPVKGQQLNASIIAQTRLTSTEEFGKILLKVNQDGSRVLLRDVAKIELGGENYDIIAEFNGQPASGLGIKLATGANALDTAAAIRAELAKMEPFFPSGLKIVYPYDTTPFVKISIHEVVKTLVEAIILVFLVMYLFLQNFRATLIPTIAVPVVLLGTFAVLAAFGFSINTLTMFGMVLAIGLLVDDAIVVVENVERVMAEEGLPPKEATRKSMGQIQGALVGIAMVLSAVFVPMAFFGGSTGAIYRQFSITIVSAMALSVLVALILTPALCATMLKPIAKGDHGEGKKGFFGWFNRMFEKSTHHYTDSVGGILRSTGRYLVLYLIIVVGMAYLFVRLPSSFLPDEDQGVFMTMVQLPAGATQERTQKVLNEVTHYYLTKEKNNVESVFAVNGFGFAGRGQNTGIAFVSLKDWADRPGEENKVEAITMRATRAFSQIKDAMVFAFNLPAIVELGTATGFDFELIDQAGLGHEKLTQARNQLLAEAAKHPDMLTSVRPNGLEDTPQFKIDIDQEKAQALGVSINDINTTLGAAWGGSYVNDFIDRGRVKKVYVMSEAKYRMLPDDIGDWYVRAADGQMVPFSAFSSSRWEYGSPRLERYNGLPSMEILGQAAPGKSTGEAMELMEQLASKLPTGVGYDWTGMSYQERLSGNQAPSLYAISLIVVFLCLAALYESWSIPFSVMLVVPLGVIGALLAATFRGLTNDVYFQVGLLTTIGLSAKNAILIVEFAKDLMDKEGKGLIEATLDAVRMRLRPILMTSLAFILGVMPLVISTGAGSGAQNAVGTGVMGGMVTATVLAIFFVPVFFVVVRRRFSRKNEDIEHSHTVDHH
Assay: ITC
Quantity Kind: pKd
One number for each entry, as −log10 of the molar value.

Problem: I'd like to know its pKd. The compound in question is CC(=O)O[C@H]1C[C@@]2(C)[C@@H](C[C@@H](O)[C@H]3[C@@]4(C)CC[C@@H](O)[C@@H](C)[C@@H]4CC[C@@]32C)/C1=C(\CCC=C(C)C)C(=O)O
Result: 3.39
